Taken from paper PMC5353780.

- System: CVB2 (strain Ohio-1)
- protocol-summary: CPE assay
- Format: cell-based, Coxsackie virus B
- condition-set: Enterovirus B, CVB2, Ohio-1; CPE
measurement-label: IC50 (µM)

compound="NC(=O)c1ncn([C@@H]2O[C@H](CO)[C@@H](O)[C@H]2O)n1 [RBV, Ribavirin]" endpoint_result=2270
compound="O=[N+]([O-])c1ccc(CNc2ccc3ncsc3c2)cc1 [N30]" endpoint_result=11.7

---

- Tested on: EV71(BrCr)
- protocol-summary: CPE assay
- Type: cell-based, Human enterovirus 71
- condition-set: Enterovirus A, EV71; CPE
pIC50: −log10 of the molar value.
measurement-label: pIC50

structure_smiles_string=CCOC(=O)c1ccc(OCCC2CCN(c3ccc(C)nn3)CC2)cc1 endpoint_result=6.80
structure_smiles_string=O=[N+]([O-])c1ccc(CNc2ccc3ncsc3c2)cc1 endpoint_result=5.09

---

- Test system: CVB1 (strain Conn-5)
- protocol-summary: CPE assay
- Type: cell-based, Coxsackie virus B
- condition-set: Enterovirus B, CVB1; CPE
pIC50: −log10 of the molar value.
As shown below, each of these compounds has a reported pIC50 value.
measurement-label: pIC50

compound="O=[N+]([O-])c1ccc(CNc2ccc3ncsc3c2)cc1 [N30]" endpoint_result=5.20
compound="NC(=O)c1ncn([C@@H]2O[C@H](CO)[C@@H](O)[C@H]2O)n1 [RBV, Ribavirin]" endpoint_result=2.63

---

- Test system: A/FortMonmouth/1/1947
- protocol-summary: CPE assay in MDCK cells
- Assay type: cell-based, Influenza A virus (H1N1)
- condition-set: Influenza A virus; CPE, MDCK cells
pIC50: −log10 of the molar value. Structures can show the parent of a compound that is named as a salt.
Property: pIC50; scope: individual compounds
measurement-label: pIC50

compound="CCC(CC)O[C@@H]1C=C(C(=O)O)C[C@H](N)[C@H]1NC(C)=O [OC, oseltamivir carboxylate]" measurement_label=pIC50 endpoint_result=6.60
compound="NC12CC3CC(CC(C3)C1)C2 [AH, amantadine hydrochloride]" measurement_label=pIC50 endpoint_result=6.19
compound="NC(=O)c1ncn([C@@H]2O[C@H](CO)[C@@H](O)[C@H]2O)n1 [RBV, Ribavirin]" measurement_label=pIC50 endpoint_result=5.79
compound="O=[N+]([O-])c1ccc(CNc2ccc3ncsc3c2)cc1 [N30]" measurement_label=pIC50 endpoint_result=5.71
